Assay: qHTS Assay for Agonists of the Thyroid Stimulating Hormone Receptor: Activators of Intracellular cAMP Concentrations in Parental HEK 293; note: nearly all actives have a fitted effect of over 55% in size
Conditions: parental HEK293 CNG cAMP sensor, membrane potential fluorescence; series mostly up to 57.1 µM
Among all 73,000 compounds or so, about 1,800 (2.5%) were called active. Not shown: some 13% with an inconclusive outcome. Calls come from the whole dose curve; as a rule, active = well fitted activation curve with a large enough effect; inconclusive = small, poorly fitted or top-dose-only effect; inactive = no such curve, though single readings can be large or run the other way. Only a selection was taken, and actives are over-represented in it overall.
Pick one and only one: active, inactive

These recorded examples may help you get a feel for the data.
O=C(c1csnn1)N1CCC[C@@]2(CCN(Cc3nccs3)C2)C1 ... active
Cc1c2c(nc3ccccc13)-c1cccc(=O)n1C2 ... inactive
O=c1c(CCc2ccccc2)nc2cncnc2n1C1CC1 ... inactive

Consider the additional compound presented here.
*Q* Record request — test call for `CCC[C@H]1C(=O)N2C(N(C)C)=Nc3ccc(C)cc3N2C1=O`
*A* inactive
